The following compounds are shown together with reported pIC50 values.
test_target: PDE1C (Homo sapiens)
procedure_text: In vitro HTRF PDE1 inhibition assay (PDE1C)
Assay type: biochemical
study_conditions: Table 24
pIC50: −log10 of the molar value.

# annotated cases, reported pIC50 shown
1. CC(C)c1ncc2c(=O)n3c(nn12)N(CCCc1ccccn1)CC3
5.00 to 6.00
2. CC(C)c1ncc2c(=O)n3c(nn12)N(CC1CCOCC1)CCC3
> 6.00
3. CN1c2nn3c(C4CCOCC4)ncc3c(=O)n2CCC1c1ccc(Cl)cc1 (centres unmarked)
5.00 to 6.00
4. CC(C)n1ncc2c(=O)n3c(nc21)N(Cc1ccc(-c2ccccn2)cc1)CC3
> 6.00
5. CC(C)CN1CCCn2c1nn1c(C(C)C)ncc1c2=O
> 6.00

Lookup: Query (compound): `CCN1c2nn3c(C4CCOCC4)ncc3c(=O)n2CC[C@@H]1c1ccc(Cl)cc1` ; field requested: pIC50
Found: 5.00 to 6.00

Lookup: Another compound: `CC(C)(C)CCN1CCn2c1nn1c(C3CCOCC3)ncc1c2=O`
Found: > 6.00

Lookup: Another compound: `O=c1c2cnc(C3CCOCC3)n2nc2n1CCCN2Cc1ccccc1`
Found: 5.00 to 6.00

Lookup: Another compound: CCN1c2nn3c(C4CCOCC4)ncc3c(=O)n2CC1c1ccc(OC)cc1 (racemic)
Found: 5.00 to 6.00

Lookup: Another compound: `CC(C)c1ncc2c(=O)n3c(nn12)N(Cc1ccc(C#N)cc1)CCC3`
Found: > 6.00

Lookup: Another compound: `CC(C)c1ncc2c(=O)n3c(nn12)N(CCC1CCOCC1)CCC3`
Found: > 6.00

Lookup: Another compound: `CC(C)c1ncc2c(=O)n3c(nn12)N(CCCCCCO)CCC3`
Found: > 6.00

Lookup: Another compound: `O=c1c2cnc(C3CCOCC3)n2nc2n1CCN2CCCC(F)(F)F`
Found: 4.00 to 5.00

Lookup: Another compound: `O=c1c2cnc(C3CCCC3)n2nc2n1CCCC2`
Found: 5.00 to 6.00

Lookup: Another compound: `CC(C)n1ncc2c(=O)n3c(nc21)N(Cc1ccc(C#N)cc1)CCC3`
Found: > 6.00

Lookup: Another compound: `CC(C)c1ncc2c(=O)n3c(nn12)N(CCCc1ccccn1)CCC3`
Found: > 6.00

Lookup: Another compound: `CC(C)n1ncc2c(=O)n3c(nc21)N(CC1CCOCC1)CCC3`
Found: 5.00 to 6.00

Lookup: Another compound: CC(C)n1ncc2c(=O)n3c(nc21)N(C)C(c1ccc(Cl)cc1)CC3 (centres unmarked)
Found: 5.00 to 6.00

Lookup: Another compound: CC1CN(CC2CCOCC2)c2nn3c(C(C)C)ncc3c(=O)n2C1 (centres unmarked)
Found: > 6.00

Lookup: Another compound: `CC(C)c1ncc2c(=O)n3c(nn12)N(CC1CCOCC1)CC3`
Found: 5.00 to 6.00

All values here come from patent US20170273985A1.
